Reference for the values: ChEMBL document CHEMBL1201862

# Test system: NCI-H23
# measurement-notes: NCI tumour cell line growth inhibition, 48 h
Calls of active or inactive are those of the source. No stated cut-off is given here; in the data, active = GI50 up to about 1.1 µM and inactive = higher.
Possible outcomes: active, inactive

compound	discrete-label
Nc1ccc(-c2nc3cc(F)ccc3s2)cc1I	active
c1ccc(C(CCN2CC3CCC(CC3)C2)c2ccccc2)cc1	inactive
CC1=C(C)C(=O)C(C2=C(C3=CC(=O)C(C)=C(C)C3=O)C(=O)c3ccccc3C2=O)=CC1=O	inactive
CC(C)(C)OC(=O)Cn1ncn(NC(=O)Cc2ccccc2)c1=S	inactive
CC(=O)c1cccc(NC2C(N)C(NC(=O)N(C)C)(C(C)O)C(C)(O)C2(O)COC(=O)c2c(C)cccc2O)c1 (configuration not stated)	active
CCOC(=O)Cn1c(=O)ccn(COCCO)c1=O	inactive
c1ccc2c(-c3csc(-c4c[nH]c5ccccc45)n3)c[nH]c2c1	inactive
Cc1cccc(C)c1NC(=O)CCC/C(CC(=O)c1ccc(F)cc1)=N\NC(=O)C(=O)NN	inactive
COC(=O)CC[N+]1([O-])CC1	inactive
CC(C)(C)c1cc([N+](=O)[O-])cc([N+](=O)[O-])c1O [DINOTERB]	inactive
COc1ccc(C2Oc3cc(OC)c(OC)cc3C2CCl)cc1OC (configuration not stated)	inactive
O=CNC(Cc1c[nH]cn1)C(=O)O (configuration not stated)	inactive
COC(=O)c1cc2ccc(N)nc2[nH]c1=O	inactive
C[Si](C)(C)C(Sc1ccccc1)(Sc1ccccc1)Sc1ccccc1	inactive
CC(C)NC(=O)OCc1c(COC(=O)NC(C)C)c(-c2ccc[n+](COC(=O)CC(C)(C)C)c2)n2c1CCC2	inactive
CCN1C(=O)/C(=C/Nc2ccccc2)S/C1=N/Nc1nc(-c2ccc(O)c(O)c2)cs1	inactive
C[C@]12CCC3C4=C(CCC3C1CCC2=O)C(=O)[C@H]1O[C@H]1C4=O (some centres not stated)	inactive
CCOC(=O)C1C(c2ccc(O)c(OC)c2)c2c(n[nH]c2O)CC1(C)O (configuration not stated)	inactive
COc1ccc(-c2cc(-c3ccc(Nc4ccnc5cc(Cl)ccc45)cc3)[nH]c(=O)c2C#N)c2ccccc12	inactive
C=CCC(CCC(C)=O)(C(=O)OCC)C(=O)OCC	inactive
COc1ccc(N(CC(=O)O)N=O)cc1	inactive
CCOC(=O)/C(C(=O)Nc1ccc(F)cc1)=C(/N)N1CCOCC1	inactive
CCOC(=O)c1cc(=O)n(C)c(=O)n1C	inactive
N=C1OC(c2c[nH]c3ccc(OCc4ccccc4)cc23)C(O)=C1O (configuration not stated)	inactive
Cn1cc2ccccc2c1-c1nc(F)nc(OCC(=O)[C@H]2CCC3[C@@H]4CCC5=CC(=O)CC[C@]5(C)C4[C@@H](O)C[C@@]32C)n1 (some centres not stated)	inactive
CC1=C(/C=C/C(C)=C/C=C/C(C)=C/C(=O)OCC2OC(n3cc(F)c(=O)[nH]c3=O)CC2OC(=O)/C=C(C)/C=C/C=C(C)/C=C/C2=C(C)CCCC2(C)C)C(C)(C)CCC1 (configuration not stated)	inactive
COc1ccc(/C=C2\OC(=O)C(Cl)=C2c2ccc(OC)c(Cl)c2)cc1	inactive
Nc1nc(Cl)cc(NCCCCCNc2cc(Cl)nc(N)n2)n1	inactive
O=C1OC(OC/C(Br)=C(\Br)COC2OC(=O)C(Cl)=C2Cl)C(Cl)=C1Cl (configuration not stated)	inactive
O=C1OCC2C1C1c3ccccc3C(O)c3ccccc3C21 (configuration not stated)	inactive
CCOC(=O)NC(=O)c1c[nH]c(=O)[nH]c1=O	inactive
CCC1OC2C(CC=C(C)C)=C3OC(C)(O)C(C)(CC)C(O)C3=C3OC(=O)C=C1C32 (configuration not stated)	inactive
COc1ccc2c(c1)CC1c3c(ccc(OC)c3O)CC2N1C (configuration not stated)	inactive
S=c1[nH]c2ccc(Br)cc2c(=S)s1	inactive
CC(=O)Oc1ccc(-c2c(OC(C)=O)c(OC(C)=O)c(-c3ccc(OC(C)=O)c(OC(C)=O)c3)c(OC(C)=O)c2OC(C)=O)cc1	inactive
Brc1ccc2[nH]c3c(C4=NCCC4)nccc3c2c1	inactive
CCCCCCCCCCCCN(CC(O)C(O)C(OC1OC(CO)C(O)C(O)C1O)C(O)CO)C(=O)CCCCCCCCCCC (configuration not stated)	inactive

---

# System: 786-0
# measurement-notes: NCI tumour cell line growth inhibition, 48 h
Active and inactive are the calls of the source. Rule as the data show it: active = GI50 up to about 1.1 µM and inactive = higher.
GI50: recorded values
measured-parameter: GI50

> print(dat)
                                   molecule             observed
1  CC(=O)c1c(=O)n(-c2ccc(C)cc2)c(O)c2c(N)n[nH]c12  > 100 µM (inactive)
2  CCOC(=O)/C(C#N)=C(O)/C(=C\c1ccc(Br)cc1)NC(=O)c1ccccc1  > 100 µM (inactive)
3             c1ccc(C(c2ccccc2)c2cccnc2)cc1  > 100 µM (inactive)
4  COc1c(C)c2c(c3c1c(=O)c1ccccc1n3C)C=CC(C)(C)O2   23.4 µM (inactive)
5  C#C[C@]1(O)CC[C@H]2[C@@H]3CCC4=C/C(=N/OC(=O)c5cccc6c(=O)c7ccccc7[nH]c56)CC[C@@H]4[C@H]3CC[C@@]21C  > 100 µM (inactive)
6  Cc1ccc(-c2cc(-c3ccccc3)c(C#N)c(=O)n2C2OC(CO)C(O)C(O)C2O)cc1 (centres undefined)  > 100 µM (inactive)
7  CCOC(=O)C1N(S(=O)(=O)c2ccc(C)cc2)CCC12C(c1ccc(OC)c(OC)c1)=Nc1ccccc12 (centres undefined)  > 100 µM (inactive)
8  COc1cccc(N2C(=O)CS(=O)(=O)C2c2cccc(Oc3ccccc3)c2)c1 (centres undefined)   16.9 µM (inactive)
9  CC(=O)/C=C/CCC(=O)/C=C/C(=O)OC(CCC(=O)/C=C/C(=O)O)CC(C)=O (centres undefined)  > 100 µM (inactive)

---

# Test system: MDA-MB-231
# measurement-notes: NCI tumour cell line growth inhibition, 48 h
Active and inactive are the calls of the source. Rule as the data show it: active = GI50 up to about 1.1 µM and inactive = higher.
GI50 values by entry
measured-parameter: GI50

molecule	observed
CCOC(=O)c1sc2nc(SC)nc3c2c1NCN3c1ccccc1Cl	76.4 µM (inactive)
Cc1cccc(NC(=O)c2cccc([N+](=O)[O-])c2O)c1C	37.9 µM (inactive)
CCC1=NC(N/N=C/c2ccccc2O)=N/C1=C\c1ccccc1O	36.3 µM (inactive)
CCOC(=O)N1CCC2(CC1)C[C@](Sc1ccccc1)(C(C)=O)[C@H](C)O2	> 100 µM (inactive)
NC1=CN(CCCO)C2=N/C(=C\c3ccccc3)C(=O)N12	> 100 µM (inactive)
CO[C@H]1/C=C/O[C@@]2(C)Oc3c(C)c(O)c4c(O)c(c(/C=N/N5CCN(C)CC5)c(O)c4c3C2=O)NC(=O)/C(C)=C\C=C\[C@H](C)[C@H](O)[C@@H](C)[C@@H](O)[C@@H](C)[C@H](OC(C)=O)[C@@H]1C	24.5 µM (inactive)
C[C@@H](CC(=O)O)OC1OC(COC(=O)C(C)(C)C)C(OC(=O)C(C)(C)C)C(OC(=O)C(C)(C)C)C1OC(=O)C(C)(C)C (stereo partly drawn)	> 100 µM (inactive)
Cc1cc(C)n(CC(Cn2nc(C)cc2C)=C(/C(Cl)=C(/Cl)Nc2ccc([N+](=O)[O-])cc2)[N+](=O)[O-])n1	6.05 µM (inactive)

---

# Test system: SW-620
# measurement-notes: NCI tumour cell line growth inhibition, 48 h
The source made the active and inactive calls. No stated cut-off is given here; in the data, active = GI50 up to about 1.1 µM and inactive = higher.
A collection of compounds and their measured GI50
measured-parameter: GI50

> print(dat)
                                    compound             observed
 1  CC(=O)Oc1ccc(-c2c(OC(C)=O)c(OC(C)=O)c(-c3ccc(OC(C)=O)c(OC(C)=O)c3)c(OC(C)=O)c2OC(C)=O)cc1   14.9 µM (inactive)
 2  COc1ccc(O)c(C#N)c1C#N.COc1ccc(OC)c(C#N)c1C#N  > 100 µM (inactive)
 3  COc1cc2c(c(OC)c1)C(=O)C(=O)C(CC1(C)OCCCO1)=C2   1.79 µM (inactive)
 4  CCC12CCCN(Cc3ccccc3)C1c1c(n(C)c3ccccc13)C(CO)C2 (stereo not given)   35.6 µM (inactive)
 5  COc1ccc(/C=N/n2cnc3c(sc(=S)n3-c3ccccc3)c2=O)cc1   99.3 µM (inactive)
 6         O=C(Cn1ccnc1[N+](=O)[O-])c1ccccc1  > 100 µM (inactive)
 7  Nc1nc2c(c(=O)[nH]1)NC(CO)CN2 (stereo not given)   37.9 µM (inactive)
 8  COc1ccc2c(c1)CC[C@@H]1[C@@H]2CC[C@]2(C)C(=O)/C(=C/c3ccc(C#N)cc3)C[C@@H]12  > 100 µM (inactive)
 9  N#CCCN(CCC#N)c1ccc(C(Sc2ccccc2)C(NC(=O)c2cc([N+](=O)[O-])ccc2Cl)C(=O)Sc2ccccc2)cc1 (stereo not given)   2.19 µM (inactive)
10       O=C1/C(=C/c2cccc3ccccc23)Cc2ccccc21   31.6 µM (inactive)
